# CONDITION: in ethyl acetate, 303.15 K
READOUT_KIND: solubility (mole fraction)
Give a plain numeric answer without units written out.

I would be grateful if you could share the reported solubility (mole fraction) for COC(=O)[C@H](c1ccccc1Cl)N1CCc2sccc2C1.O=S(=O)(O)O .
0.000543

----------
# CONDITION: in n-butanol, 283.15 K
READOUT_KIND: solubility (mole fraction)
The response must contain the number and no unit.

Sample COC(=O)[C@H](c1ccccc1Cl)N1CCc2sccc2C1.O=S(=O)(O)O — what was its solubility (mole fraction)?
0.0655

----------
# CONDITION: in sec-butanol, 298.15 K
READOUT_KIND: solubility (mole fraction)
Just the number, please, no unit after it.

State the recorded solubility (mole fraction) for this entry: COC(=O)[C@H](c1ccccc1Cl)N1CCc2sccc2C1.O=S(=O)(O)O
0.016

----------
# CONDITION: in MTBE, 303.15 K
READOUT_KIND: solubility (mole fraction)
# output: bare number, no unit

Give the measured solubility (mole fraction) of COC(=O)[C@H](c1ccccc1Cl)N1CCc2sccc2C1.O=S(=O)(O)O .
0.000122

----------
# CONDITION: in ethyl acetate, 278.15 K
READOUT_KIND: solubility (mole fraction)
Number only, no unit.

Give the measured solubility (mole fraction) of COC(=O)[C@H](c1ccccc1Cl)N1CCc2sccc2C1.O=S(=O)(O)O .
0.000325

----------
# CONDITION: in isopropanol, 278.15 K
READOUT_KIND: solubility (mole fraction)
Lab note: write the figure by itself, no unit.

Report solubility (mole fraction) for COC(=O)[C@H](c1ccccc1Cl)N1CCc2sccc2C1.O=S(=O)(O)O please.
0.0113

----------
# CONDITION: in isopropanol, 303.15 K
READOUT_KIND: solubility (mole fraction)
Answer using only a numeral; do not append any unit.

Can you look up the measured solubility (mole fraction) of COC(=O)[C@H](c1ccccc1Cl)N1CCc2sccc2C1.O=S(=O)(O)O for me?
0.0382

----------
# CONDITION: in MTBE, 278.15 K
READOUT_KIND: solubility (mole fraction)
Keep the answer to the number alone.

Could you share which solubility (mole fraction) value was measured for COC(=O)[C@H](c1ccccc1Cl)N1CCc2sccc2C1.O=S(=O)(O)O ?
6.5e-05

----------
# CONDITION: in n-butanol, 288.15 K
READOUT_KIND: solubility (mole fraction)
Give the value as a plain number.

// lookup solubility (mole fraction) for COC(=O)[C@H](c1ccccc1Cl)N1CCc2sccc2C1.O=S(=O)(O)O
0.0686

----------
# CONDITION: in ethyl acetate, 293.15 K
READOUT_KIND: solubility (mole fraction)

Which solubility (mole fraction) reading was recorded for the molecule COC(=O)[C@H](c1ccccc1Cl)N1CCc2sccc2C1.O=S(=O)(O)O ?
0.000457

----------
# CONDITION: in methyl acetate, 308.15 K
READOUT_KIND: solubility (mole fraction)
// response body must contain only the number

Would you mind telling me what solubility (mole fraction) value was observed for COC(=O)[C@H](c1ccccc1Cl)N1CCc2sccc2C1.O=S(=O)(O)O ?
0.00214

----------
# CONDITION: in n-butanol, 273.15 K
READOUT_KIND: solubility (mole fraction)
Just the number, please, no unit after it.

Looking for the measured solubility (mole fraction) of COC(=O)[C@H](c1ccccc1Cl)N1CCc2sccc2C1.O=S(=O)(O)O , can you help?
0.0502

----------
# CONDITION: in isopropanol, 288.15 K
READOUT_KIND: solubility (mole fraction)
I only need the number, thanks.

Name the reported solubility (mole fraction) value associated with the compound COC(=O)[C@H](c1ccccc1Cl)N1CCc2sccc2C1.O=S(=O)(O)O
0.0198

----------
# CONDITION: in sec-butanol, 303.15 K
READOUT_KIND: solubility (mole fraction)
In your answer, state the number alone without any accompanying words.

# input compound: COC(=O)[C@H](c1ccccc1Cl)N1CCc2sccc2C1.O=S(=O)(O)O ; wanted: its solubility (mole fraction)
0.0191

----------
# CONDITION: in ethyl acetate, 298.15 K
READOUT_KIND: solubility (mole fraction)
The answer should be a number; do not append a unit.

I have this molecule here, COC(=O)[C@H](c1ccccc1Cl)N1CCc2sccc2C1.O=S(=O)(O)O , and I need its recorded solubility (mole fraction).
0.000511

----------
# CONDITION: in n-butanol, 293.15 K
READOUT_KIND: solubility (mole fraction)
Please give only the number in your answer, with no unit.

What measured solubility (mole fraction) goes with COC(=O)[C@H](c1ccccc1Cl)N1CCc2sccc2C1.O=S(=O)(O)O ?
0.0771

----------
# CONDITION: in sec-butanol, 293.15 K
READOUT_KIND: solubility (mole fraction)
// no unit, no text: just the number

Recorded solubility (mole fraction) of COC(=O)[C@H](c1ccccc1Cl)N1CCc2sccc2C1.O=S(=O)(O)O , please.
0.0127

----------
# CONDITION: in ethyl acetate, 283.15 K
READOUT_KIND: solubility (mole fraction)
Reply: number alone, nothing else.

Return reported solubility (mole fraction); argument: COC(=O)[C@H](c1ccccc1Cl)N1CCc2sccc2C1.O=S(=O)(O)O
0.000342

----------
# CONDITION: in acetone, 283.15 K
READOUT_KIND: solubility (mole fraction)
Returns: the value as a bare number; no unit string appended.

Entry COC(=O)[C@H](c1ccccc1Cl)N1CCc2sccc2C1.O=S(=O)(O)O : reported solubility (mole fraction) = ?
0.0339

----------
# CONDITION: in acetone, 278.15 K
READOUT_KIND: solubility (mole fraction)
Could you respond with only the numeric value?

Reported solubility (mole fraction), compound COC(=O)[C@H](c1ccccc1Cl)N1CCc2sccc2C1.O=S(=O)(O)O : ____
0.0262

----------
# CONDITION: in methyl acetate, 288.15 K
READOUT_KIND: solubility (mole fraction)
Output spec: single numeric token, no unit.

Any idea what solubility (mole fraction) was measured for COC(=O)[C@H](c1ccccc1Cl)N1CCc2sccc2C1.O=S(=O)(O)O ?
0.00122

----------
# CONDITION: in acetone, 303.15 K
READOUT_KIND: solubility (mole fraction)
Write no unit; give the number alone.

Returns the measured solubility (mole fraction) for the input molecule. Input: COC(=O)[C@H](c1ccccc1Cl)N1CCc2sccc2C1.O=S(=O)(O)O
0.0672

----------
# CONDITION: in methyl acetate, 283.15 K
READOUT_KIND: solubility (mole fraction)
Format: numeric value only, no unit, no commentary.

State the recorded solubility (mole fraction) for this entry: COC(=O)[C@H](c1ccccc1Cl)N1CCc2sccc2C1.O=S(=O)(O)O
0.00112

----------
# CONDITION: in acetone, 288.15 K
READOUT_KIND: solubility (mole fraction)
Give a plain numeric answer without units written out.

Reported solubility (mole fraction) for COC(=O)[C@H](c1ccccc1Cl)N1CCc2sccc2C1.O=S(=O)(O)O : what is it?
0.0436

----------
# CONDITION: in MTBE, 273.15 K
READOUT_KIND: solubility (mole fraction)
Format: numeric value only, no unit, no commentary.

Look up solubility (mole fraction): COC(=O)[C@H](c1ccccc1Cl)N1CCc2sccc2C1.O=S(=O)(O)O
6.2e-05

----------
# CONDITION: in sec-butanol, 283.15 K
READOUT_KIND: solubility (mole fraction)
Lab note: write the figure by itself, no unit.

Given the compound COC(=O)[C@H](c1ccccc1Cl)N1CCc2sccc2C1.O=S(=O)(O)O , what is its reported solubility (mole fraction)?
0.00678

----------
# CONDITION: in sec-butanol, 273.15 K
READOUT_KIND: solubility (mole fraction)
# output: bare number, no unit

I have this compound here, COC(=O)[C@H](c1ccccc1Cl)N1CCc2sccc2C1.O=S(=O)(O)O , and I need its recorded solubility (mole fraction).
0.00377

----------
# CONDITION: in MTBE, 308.15 K
READOUT_KIND: solubility (mole fraction)
Reply briefly: the number, and no unit.

Bench note: what solubility (mole fraction) did COC(=O)[C@H](c1ccccc1Cl)N1CCc2sccc2C1.O=S(=O)(O)O show?
0.000125

----------
# CONDITION: in methyl acetate, 273.15 K
READOUT_KIND: solubility (mole fraction)

Which solubility (mole fraction) value belongs to COC(=O)[C@H](c1ccccc1Cl)N1CCc2sccc2C1.O=S(=O)(O)O ?
0.000959

----------
# CONDITION: in n-butanol, 278.15 K
READOUT_KIND: solubility (mole fraction)
// no unit, no text: just the number

Find the recorded solubility (mole fraction) belonging to COC(=O)[C@H](c1ccccc1Cl)N1CCc2sccc2C1.O=S(=O)(O)O and report it.
0.056

----------
# CONDITION: in methyl acetate, 303.15 K
READOUT_KIND: solubility (mole fraction)
// return just the number, without any unit appended

I am curious: what solubility (mole fraction) value has been reported for COC(=O)[C@H](c1ccccc1Cl)N1CCc2sccc2C1.O=S(=O)(O)O ?
0.00188

Source: BigSolDB 2.1
